System Name: Follistatin (Homo sapiens)
Assay Method Text: follistatin binders on small-molecule microarrays, primary screen, biochemical, small-molecule microarray, 635/667 nm fluorescence (AID 1132)
Condition Label: FST binding, 635 nm fluorescence, higher = more signal
Classification by composite z-score | ranges: b0: < 0.3; b1: ≥ 0.3 and < 0.8; b2: ≥ 0.8

CC(CCN1CCCCc2nc(C)c(C)cc21)=NOC[C@@H](O)[C@H]1O[C@@H]2OC(C)(C)O[C@@H]2[C@H]1O | b1
CC(C)(C)N1C(=O)[C@H]2[C@H]3[C@H](O)[C@H](O)CC(=NNC(=O)OCc4ccccc4)[C@@H]3CC[C@H]2C1=O | b0
COC(=O)[C@H](C)NC(=O)CCC1CC(OC(=O)NCc2cccc3ccccc23)CC2(CCCC(COC(=O)NCCc3ccccc3OC)O2)O1 (stereo partly specified) | b2

We next turn to a different molecule, shown below.
Query block: Which class is correct for the following molecule? `COCC#Cc1ccc([C@@H]2N[C@H](C(=O)O)CC[C@H]2C)cc1`
Result block: b0
